- assay.info: Therapeutic index, ratio of IC50 for primary hepatocytes (unknown origin) to IC50 for human HepG2 cells
- Assay type: toxicity
- condition.set: primary hepatocytes (unknown origin) versus HepG2 cells, read-out: Ratio IC50
quantity: selectivity ratio
Reply with just the number.

Value lookup for selectivity ratio; key = "CC1=C(C)C(=O)C(C(C)(C)CC(=O)O[C@@H]2[C@@]3(C(C)C)O[C@H]3[C@@H]3O[C@]34[C@]23O[C@H]3C[C@H]2C3=C(CC[C@@]24C)C(=O)OC3)=C(C)C1=O"
9.89

----------
- experimental.system: NQO1 (NAD(P)H dehydrogenase [quinone] 1) (Homo sapiens)
- Sequence (P15559 whole entry): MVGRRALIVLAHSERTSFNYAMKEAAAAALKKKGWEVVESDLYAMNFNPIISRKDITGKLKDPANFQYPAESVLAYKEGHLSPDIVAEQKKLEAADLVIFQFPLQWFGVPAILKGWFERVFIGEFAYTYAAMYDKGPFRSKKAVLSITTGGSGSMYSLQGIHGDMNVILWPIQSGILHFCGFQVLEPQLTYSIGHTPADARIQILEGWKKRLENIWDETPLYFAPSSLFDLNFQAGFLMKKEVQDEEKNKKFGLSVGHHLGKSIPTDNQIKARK
- assay.info: Half life in human HepG2 cell lysates assessed as NQO1-mediated compound degradation at 10 uM in presence of NADPH by HPLC analysis
- Type: ADME, subcellular, Lysate
quantity: half-life at 10 µM (min)
Give the value, in units of min, as a plain number.

API: value(readout=half-life at 10 µM, system=NQO1 (NAD(P)H dehydrogenase [quinone] 1) (Homo sapiens)) for record "CC1=C(C)C(=O)C(C(C)(C)CC(=O)O[C@@H]2[C@@]3(C(C)C)O[C@H]3[C@@H]3O[C@]34[C@]23O[C@H]3C[C@H]2C3=C(CC[C@@]24C)C(=O)OC3)=C(C)C1=O"
7.27

----------
- assay.info: Distribution half life in KM mouse at 1 mg/kg, ip administered as single dose
- Format: ADME, organism-based
- condition.set: in vivo, read-out: alphat1/2
quantity: half-life (min)
Give your result in min as a bare value.

Suppose we examine the compound "CC1=C(C)C(=O)C(C(C)(C)CC(=O)O[C@@H]2[C@@]3(C(C)C)O[C@H]3[C@@H]3O[C@]34[C@]23O[C@H]3C[C@H]2C3=C(CC[C@@]24C)C(=O)OC3)=C(C)C1=O" ; what half-life value has been reported?
15.1

----------
- Tested on: A549
- assay.info: Cytotoxicity against human A549 cells after 48 hrs by XTT assay
- Assay type: functional, cell-based
- condition.set: A549, 48 h
quantity: pIC50
Keep it numeric: pIC50 is minus log10 of the concentration in mol/L.

Fill blank: measured pIC50 of the compound "CC1=C(C)C(=O)C(C(C)(C)CC(=O)O[C@@H]2[C@@]3(C(C)C)O[C@H]3[C@@H]3O[C@]34[C@]23O[C@H]3C[C@H]2C3=C(CC[C@@]24C)C(=O)OC3)=C(C)C1=O" is ____.
7.23

----------
- assay.info: Plasma concentration in KM mouse at 1 mg/kg, ip administered as single dose at 2 hrs post dose
- Type: ADME, organism-based
quantity: concentration at 2 h
Write down the value, and be sure its unit follows.

Would you kindly share the measured concentration at 2 h for "CC1=C(C)C(=O)C(C(C)(C)CC(=O)O[C@@H]2[C@@]3(C(C)C)O[C@H]3[C@@H]3O[C@]34[C@]23O[C@H]3C[C@H]2C3=C(CC[C@@]24C)C(=O)OC3)=C(C)C1=O" ?
1.38 ng/mL

----------
- assay.info: Terminal half life in KM mouse at 1 mg/kg, ip administered as single dose
- Format: ADME, organism-based
- condition.set: in vivo, read-out: beta t1/2
quantity: half-life (h)
Note: unit h is implicit; provide only the numeric part.

Query: half-life; subject: "CC1=C(C)C(=O)C(C(C)(C)CC(=O)O[C@@H]2[C@@]3(C(C)C)O[C@H]3[C@@H]3O[C@]34[C@]23O[C@H]3C[C@H]2C3=C(CC[C@@]24C)C(=O)OC3)=C(C)C1=O"
2.57

----------
- assay.info: Cmax in KM mouse at 1 mg/kg, ip administered as single dose
- Type: ADME, organism-based
- Parameters: dose 1 mg/kg, route intraperitoneal
- condition.set: in vivo
quantity: Cmax (ng/mL)
Hi! Could you send only the number? It should be in ng/mL, unit omitted.

What value of Cmax has been reported for the following compound? "CC1=C(C)C(=O)C(C(C)(C)CC(=O)O[C@@H]2[C@@]3(C(C)C)O[C@H]3[C@@H]3O[C@]34[C@]23O[C@H]3C[C@H]2C3=C(CC[C@@]24C)C(=O)OC3)=C(C)C1=O"
243

----------
- Test system: HeLa
- assay.info: Cytotoxicity against human HeLa cells after 48 hrs by XTT assay
- Assay type: functional, cell-based
quantity: pIC50
Kindly note that pIC50 refers to -log10 of the concentration in mol/L and answer with the value alone.

# lookup: pIC50 of "CC1=C(C)C(=O)C(C(C)(C)CC(=O)O[C@@H]2[C@@]3(C(C)C)O[C@H]3[C@@H]3O[C@]34[C@]23O[C@H]3C[C@H]2C3=C(CC[C@@]24C)C(=O)OC3)=C(C)C1=O"
7.42

----------
- Test system: carboxyl ester hydrolase
- assay.info: Half life in human plasma assessed as carboxyl ester hydrolase-mediated compound degradation at 10 uM by UV-HPLC analysis
- Assay type: ADME, cell-free
quantity: half-life at 10 µM

// lookup half-life at 10 µM for "CC1=C(C)C(=O)C(C(C)(C)CC(=O)O[C@@H]2[C@@]3(C(C)C)O[C@H]3[C@@H]3O[C@]34[C@]23O[C@H]3C[C@H]2C3=C(CC[C@@]24C)C(=O)OC3)=C(C)C1=O"
> 1 h

----------
- assay.info: Tmax in KM mouse at 1 mg/kg, ip administered as single dose
- Type: ADME, organism-based
- condition.set: in vivo
quantity: Tmax (min)
State just the number; it will be interpreted in min.

What value of Tmax has been recorded for this entry: "CC1=C(C)C(=O)C(C(C)(C)CC(=O)O[C@@H]2[C@@]3(C(C)C)O[C@H]3[C@@H]3O[C@]34[C@]23O[C@H]3C[C@H]2C3=C(CC[C@@]24C)C(=O)OC3)=C(C)C1=O"
3

----------
- Tested on: Keratinocyte
- assay.info: Cytotoxicity against human keratinocytes after 48 hrs by XTT assay
- Format: cell-based
quantity: IC50

Request - read-out IC50 | tested on Keratinocyte | compound "CC1=C(C)C(=O)C(C(C)(C)CC(=O)O[C@@H]2[C@@]3(C(C)C)O[C@H]3[C@@H]3O[C@]34[C@]23O[C@H]3C[C@H]2C3=C(CC[C@@]24C)C(=O)OC3)=C(C)C1=O"
> 1000 nM

The measured values listed here are drawn from ChEMBL document CHEMBL4382274.
